- System: TE-1 (Esophageal Squamous Cell Carcinoma);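 further: after 72 h of two-drug dosing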
- test: Bliss excess, mean over the matrix (fraction); higher = more synergy
metricName: Bliss excess
Field format: numeric only.

Take a look at these entries with their results.
compound	metricName	measurement
Cc1cc2ncnn2cc1Nc1ncc2c(n1)n(C1CCOCC1)c(=O)n2C [AZD7648] + C=CCn1c(=O)c2cnc(Nc3ccc(N4CCN(C)CC4)cc3)nc2n1-c1cccc(C(C)(C)O)n1 [AZD1775] (first compound max 10 µM, partner max 1 µM)	Bliss excess	-0.0045
CC1(C)CCC(CN2CCN(c3ccc(C(=O)NS(=O)(=O)c4ccc(NCC5CCOCC5)c([N+](=O)[O-])c4)c(Oc4cnc5[nH]ccc5c4)c3)CC2)=C(c2ccc(Cl)cc2)C1 [Venetoclax] + C[C@@H](Nc1cc(F)cc(F)c1)c1cc(C(=O)N(C)C)cc2c(=O)cc(N3CCOCC3)oc12 [AZD8186] (first compound max 1 µM, 7x7, partner max 3 µM)	Bliss excess	0.0042
COc1nnc2ccc(N3CCC(c4ccc(OCCN5CCN(C)C(=O)[C@H]5C)cc4)CC3)nn12 [AZD5153] + Cc1c2c(nn1C)CSCc1cc(n(C)n1)CSc1cc(c3ccccc3c1)OCCCc1c(C(=O)O)n(C)c3c-2c(Cl)ccc13 [AZD5991] (first compound max 1 µM, 7x7, partner max 1 µM)	Bliss excess	-0.0166
CN(CCO)CC[C@H](CSc1ccccc1)Nc1ccc(S(=O)(=O)NC(=O)c2ccc(N3CCC([C@@H](O)c4ccccc4-c4ccc(Cl)cc4)CC3)cc2)cc1S(=O)(=O)C(F)(F)F [AZD4320] + Cc1cc2ncnn2cc1Nc1ncc2c(n1)n(C1CCOCC1)c(=O)n2C [AZD7648] (first compound max 1 µM, 7x7, partner max 10 µM)	Bliss excess	-0.0443
CN(C)CCCOc1ccc(-c2ccc3ncc4c(c3c2)n(C2CCOCC2)c(=O)n4C)cn1 [AZD0156] + C[C@@H]1COCCN1C2=NC(=NC(=C2)C3(CC3)[S@](=N)(=O)C)C4=C5C=CNC5=NC=C4 [AZD6738] (first compound max 1 µM, 7x7, partner max 10 µM)	Bliss excess	-0.0595
C=CCn1c(=O)c2cnc(Nc3ccc(N4CCN(C)CC4)cc3)nc2n1-c1cccc(C(C)(C)O)n1 [AZD1775] + O=C(c1cc(Cc2n[nH]c(=O)c3ccccc23)ccc1F)N1CCN(C(=O)C2CC2)CC1 [Olaparib] (first compound max 1 µM, partner max 10 µM)	Bliss excess	-0.0834

Let us move to another entry and its Bliss excess.
Recorded result, COc1nnc2ccc(N3CCC(c4ccc(OCCN5CCN(C)C(=O)[C@H]5C)cc4)CC3)nn12 [AZD5153] + CC1(C)CCC(CN2CCN(c3ccc(C(=O)NS(=O)(=O)c4ccc(NCC5CCOCC5)c([N+](=O)[O-])c4)c(Oc4cnc5[nH]ccc5c4)c3)CC2)=C(c2ccc(Cl)cc2)C1 [Venetoclax] (first compound max 1 µM, 7x7, partner max 1 µM) , Bliss excess: -0.0383

---

- Tested on: NB69 (Neuroblastoma)
- test: combination Emax (second highest fraction inhibited in the dose matrix, 72 h); higher = more inhibition; extreme values may be limits of the assay
metricName: combination Emax
Field format: numeric only.

Take a look at these entries with their results.
compound	combination Emax
Cc1c2c(nn1C)CSCc1cc(n(C)n1)CSc1cc(c3ccccc3c1)OCCCc1c(C(=O)O)n(C)c3c-2c(Cl)ccc13 [AZD5991] + CC(=O)O[C@H]1C(=O)[C@@]2(C)[C@H]([C@H](OC(=O)c3ccccc3)[C@]3(O)C[C@H](OC(=O)[C@H](O)[C@@H](NC(=O)c4ccccc4)c4ccccc4)C(C)=C1C3(C)C)[C@]1(OC(C)=O)CO[C@@H]1C[C@@H]2O [Paclitaxel] (first compound max 1 µM, 7x7, partner max 3 µM)	1
CN(CCO)CC[C@H](CSc1ccccc1)Nc1ccc(S(=O)(=O)NC(=O)c2ccc(N3CCC([C@@H](O)c4ccccc4-c4ccc(Cl)cc4)CC3)cc2)cc1S(=O)(=O)C(F)(F)F [AZD4320] + CCN(CCO)CCCOc1ccc2c(Nc3cc(CC(=O)Nc4cccc(F)c4)[nH]n3)ncnc2c1 [AZD2811] (first compound max 1 µM, 7x7, partner max 1 µM)	0.902

Let us move to another entry and its combination Emax.
Recorded result, C=CCn1c(=O)c2cnc(Nc3ccc(N4CCN(C)CC4)cc3)nc2n1-c1cccc(C(C)(C)O)n1 [AZD1775] + Nc1ccn([C@@H]2O[C@H](CO)[C@@H](O)C2(F)F)c(=O)n1 [Gemcitabine] (first compound max 1 µM, partner max 0.3 µM) , combination Emax: 1

---

- Tested on: SCC-15 (Oral Cavity Carcinoma)
- test: combination Emax (second highest fraction inhibited in the dose matrix, 72 h); higher = more inhibition; extreme values may be limits of the assay
metricName: combination Emax
Field format: numeric only.

Take a look at these entries with their results.
molecule	combination Emax
Cc1c2c(nn1C)CSCc1cc(n(C)n1)CSc1cc(c3ccccc3c1)OCCCc1c(C(=O)O)n(C)c3c-2c(Cl)ccc13 [AZD5991] + CCN(CCO)CCCOc1ccc2c(Nc3cc(CC(=O)Nc4cccc(F)c4)[nH]n3)ncnc2c1 [AZD2811] (first compound max 1 µM, 7x7, partner max 1 µM)	0.307
COc1cccc(OCCCN)c1-c1cc(Nc2cnc(C#N)cn2)n[nH]1 [Prexasertib] + C=CCn1c(=O)c2cnc(Nc3ccc(N4CCN(C)CC4)cc3)nc2n1-c1cccc(C(C)(C)O)n1 [AZD1775] (first compound max 1 µM, partner max 1 µM)	0.638
CN(CCO)CC[C@H](CSc1ccccc1)Nc1ccc(S(=O)(=O)NC(=O)c2ccc(N3CCC([C@@H](O)c4ccccc4-c4ccc(Cl)cc4)CC3)cc2)cc1S(=O)(=O)C(F)(F)F [AZD4320] + Cc1cc2ncnn2cc1Nc1ncc2c(n1)n(C1CCOCC1)c(=O)n2C [AZD7648] (first compound max 1 µM, 7x7, partner max 10 µM)	0.265
Cc1c2c(nn1C)CSCc1cc(n(C)n1)CSc1cc(c3ccccc3c1)OCCCc1c(C(=O)O)n(C)c3c-2c(Cl)ccc13 [AZD5991] + Cc1cc2ncnn2cc1Nc1ncc2c(n1)n(C1CCOCC1)c(=O)n2C [AZD7648] (first compound max 1 µM, 7x7, partner max 10 µM)	0.25
CN(C)CCCOc1ccc(-c2ccc3ncc4c(c3c2)n(C2CCOCC2)c(=O)n4C)cn1 [AZD0156] + CCN(CCO)CCCOc1ccc2c(Nc3cc(CC(=O)Nc4cccc(F)c4)[nH]n3)ncnc2c1 [AZD2811] (first compound max 1 µM, 7x7, partner max 1 µM)	0.201

Recorded result, Cc1c2c(nn1C)CSCc1cc(n(C)n1)CSc1cc(c3ccccc3c1)OCCCc1c(C(=O)O)n(C)c3c-2c(Cl)ccc13 [AZD5991] + Cn1cnc2c(F)c(Nc3ccc(Br)cc3Cl)c(C(=O)NOCCO)cc21 [Selumetinib] (first compound max 1 µM, 7x7, partner max 3 µM) , combination Emax: 0.322

Recorded result, COc1cccc(OCCCN)c1-c1cc(Nc2cnc(C#N)cn2)n[nH]1 [Prexasertib] + CCc1c2c(nc3ccc(O)cc13)-c1cc3c(c(=O)n1C2)COC(=O)[C@]3(O)CC [SN-38] (first compound max 1 µM, 7x7, partner max 0.3 µM) , combination Emax: 0.802

---

- Tested on: MLMA (Other Blood Carcinomas)
- test: combination Emax (second highest fraction inhibited in the dose matrix, 72 h); higher = more inhibition; extreme values may be limits of the assay
Given measured combination Emax, output Met if it is greater than or equal to 0.8 and Not met if not.

compound	classification
C=CCn1c(=O)c2cnc(Nc3ccc(N4CCN(C)CC4)cc3)nc2n1-c1cccc(C(C)(C)O)n1 [AZD1775] + C1CN(CCC1(C(=O)N[C@@H](CCO)C2=CC=C(C=C2)Cl)N)C3=NC=NC4=C3C=CN4 [Capivasertib] (first compound max 3 µM, partner max 3 µM)	Met

Assess whether reported combination Emax for COc1nnc2ccc(N3CCC(c4ccc(OCCN5CCN(C)C(=O)[C@H]5C)cc4)CC3)nn12 [AZD5153] + Cc1c2c(nn1C)CSCc1cc(n(C)n1)CSc1cc(c3ccccc3c1)OCCCc1c(C(=O)O)n(C)c3c-2c(Cl)ccc13 [AZD5991] (first compound max 1 µM, 7x7, partner max 1 µM) sits at 0.8 or higher.
Met

Assess whether reported combination Emax for CN(CCO)CC[C@H](CSc1ccccc1)Nc1ccc(S(=O)(=O)NC(=O)c2ccc(N3CCC([C@@H](O)c4ccccc4-c4ccc(Cl)cc4)CC3)cc2)cc1S(=O)(=O)C(F)(F)F [AZD4320] + CN(C)CCCOc1ccc(-c2ccc3ncc4c(c3c2)n(C2CCOCC2)c(=O)n4C)cn1 [AZD0156] (first compound max 1 µM, 7x7, partner max 1 µM) sits at 0.8 or higher.
Not met

Assess whether reported combination Emax for COc1nnc2ccc(N3CCC(c4ccc(OCCN5CCN(C)C(=O)[C@H]5C)cc4)CC3)nn12 [AZD5153] + CCN(CCO)CCCOc1ccc2c(Nc3cc(CC(=O)Nc4cccc(F)c4)[nH]n3)ncnc2c1 [AZD2811] (first compound max 1 µM, 7x7, partner max 1 µM) sits at 0.8 or higher.
Met

Assess whether reported combination Emax for Cn1cnc2c(F)c(Nc3ccc(Br)cc3Cl)c(C(=O)NOCCO)cc21 [Selumetinib] + C=CCn1c(=O)c2cnc(Nc3ccc(N4CCN(C)CC4)cc3)nc2n1-c1cccc(C(C)(C)O)n1 [AZD1775] (first compound max 10 µM, partner max 1 µM) sits at 0.8 or higher.
Not met
